target: SIK3 (Homo sapiens); construct: purchased SignalChem S12-11G-100; experiment: biochemical
Sequence (Q9Y2K2 whole entry): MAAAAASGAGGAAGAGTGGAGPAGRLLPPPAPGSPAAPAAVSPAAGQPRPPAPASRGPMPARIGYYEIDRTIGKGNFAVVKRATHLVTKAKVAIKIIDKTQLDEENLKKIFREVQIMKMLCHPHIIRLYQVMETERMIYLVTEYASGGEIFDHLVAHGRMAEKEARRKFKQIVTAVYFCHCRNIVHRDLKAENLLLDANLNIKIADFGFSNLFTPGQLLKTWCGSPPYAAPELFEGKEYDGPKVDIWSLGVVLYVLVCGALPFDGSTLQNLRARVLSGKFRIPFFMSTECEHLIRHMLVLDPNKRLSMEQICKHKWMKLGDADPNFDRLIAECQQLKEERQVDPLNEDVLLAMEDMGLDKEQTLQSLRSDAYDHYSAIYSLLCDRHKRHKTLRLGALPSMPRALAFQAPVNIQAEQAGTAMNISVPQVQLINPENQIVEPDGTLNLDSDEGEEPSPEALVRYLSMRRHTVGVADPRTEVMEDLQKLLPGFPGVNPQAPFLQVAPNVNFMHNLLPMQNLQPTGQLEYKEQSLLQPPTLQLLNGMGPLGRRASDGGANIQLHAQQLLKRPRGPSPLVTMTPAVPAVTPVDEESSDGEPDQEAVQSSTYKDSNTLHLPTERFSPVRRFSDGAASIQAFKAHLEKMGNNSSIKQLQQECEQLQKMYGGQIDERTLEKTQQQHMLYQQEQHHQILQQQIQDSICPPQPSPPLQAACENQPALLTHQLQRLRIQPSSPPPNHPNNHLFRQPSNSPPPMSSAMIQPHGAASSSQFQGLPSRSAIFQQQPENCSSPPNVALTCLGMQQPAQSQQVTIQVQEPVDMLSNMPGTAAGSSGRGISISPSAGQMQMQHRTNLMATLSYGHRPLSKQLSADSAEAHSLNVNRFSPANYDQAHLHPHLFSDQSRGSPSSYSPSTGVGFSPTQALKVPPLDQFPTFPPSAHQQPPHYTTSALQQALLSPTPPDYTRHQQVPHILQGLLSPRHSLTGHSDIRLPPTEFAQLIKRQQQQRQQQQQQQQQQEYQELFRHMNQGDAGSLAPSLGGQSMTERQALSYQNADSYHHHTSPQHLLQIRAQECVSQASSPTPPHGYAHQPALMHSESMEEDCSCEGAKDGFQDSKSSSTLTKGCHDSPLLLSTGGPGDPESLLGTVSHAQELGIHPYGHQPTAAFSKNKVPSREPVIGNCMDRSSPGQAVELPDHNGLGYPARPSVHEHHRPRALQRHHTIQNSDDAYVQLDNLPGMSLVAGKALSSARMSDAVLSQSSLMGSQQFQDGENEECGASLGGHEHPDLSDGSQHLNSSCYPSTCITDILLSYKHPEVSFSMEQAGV
Measured Quantity: IC50

Solved cases below.
[[record]]
molecule = "COc1cc(-c2cnc3cc(-c4cnn(C)c4)ccn23)cc(OC(F)F)c1C(=O)NC1CC1"
assayed_target = "SIK3 (Homo sapiens)"
test_result = "0.01 to 10 nM"

[[record]]
molecule = "COc1cc(-n2cnc3cc(-c4cnn(C)c4)ccc32)cc(OC)c1C(=O)N[C@@H]1CCC[C@H]1O"
assayed_target = "SIK3 (Homo sapiens)"
test_result = "10 to 100 nM"

[[record]]
molecule = "CCn1cc(-c2ccc3c(c2)ncn3-c2cc(OC)c(C(=O)NC3C[C@H]3C)c(OC)c2)cn1 (some centres unmarked)"
assayed_target = "SIK3 (Homo sapiens)"
test_result = "10 to 100 nM"

[[record]]
molecule = "COc1cc(-c2cnc3cc(-c4cncnc4C(C)C)ccn23)cc(OC)c1C(=O)NCC(F)(F)F"
assayed_target = "SIK3 (Homo sapiens)"
test_result = "100 to 500 nM"

[[record]]
molecule = "COc1cc(-n2cnc3cc(-c4cnn(C)c4)ccc32)cc(OC)c1C(=O)NC1CC(F)(F)C1"
assayed_target = "SIK3 (Homo sapiens)"
test_result = "10 to 100 nM"


Give the measured IC50 of COc1cc(-n2cnc3cc(-c4cnn(C)c4)ccc32)cc(OC)c1C(=O)NC(C)C(F)F (centres unmarked) .
10 to 100 nM

Find the recorded IC50 belonging to `COc1cc(-c2cnc3cc(-c4cc(C)no4)ccn23)cc(OC)c1C(=O)N[C@@H](C)C(F)(F)F` and report it.
100 to 500 nM

Dear colleague, I am looking for the recorded IC50 of the following molecule: `COc1cc(-c2cnc3cc(-c4cnn(C)c4)ccn23)cc(OC)c1C(=O)NCC(F)F`
0.01 to 10 nM

---

molecular target: SIK2 (Homo sapiens); construct: purchased ThermoFisher Scientific PV4792; experiment: biochemical; conditions: 33P radioactive SIK kinase assay, AMARA peptide, 10 μM ATP
Sequence (Q9H0K1 whole entry): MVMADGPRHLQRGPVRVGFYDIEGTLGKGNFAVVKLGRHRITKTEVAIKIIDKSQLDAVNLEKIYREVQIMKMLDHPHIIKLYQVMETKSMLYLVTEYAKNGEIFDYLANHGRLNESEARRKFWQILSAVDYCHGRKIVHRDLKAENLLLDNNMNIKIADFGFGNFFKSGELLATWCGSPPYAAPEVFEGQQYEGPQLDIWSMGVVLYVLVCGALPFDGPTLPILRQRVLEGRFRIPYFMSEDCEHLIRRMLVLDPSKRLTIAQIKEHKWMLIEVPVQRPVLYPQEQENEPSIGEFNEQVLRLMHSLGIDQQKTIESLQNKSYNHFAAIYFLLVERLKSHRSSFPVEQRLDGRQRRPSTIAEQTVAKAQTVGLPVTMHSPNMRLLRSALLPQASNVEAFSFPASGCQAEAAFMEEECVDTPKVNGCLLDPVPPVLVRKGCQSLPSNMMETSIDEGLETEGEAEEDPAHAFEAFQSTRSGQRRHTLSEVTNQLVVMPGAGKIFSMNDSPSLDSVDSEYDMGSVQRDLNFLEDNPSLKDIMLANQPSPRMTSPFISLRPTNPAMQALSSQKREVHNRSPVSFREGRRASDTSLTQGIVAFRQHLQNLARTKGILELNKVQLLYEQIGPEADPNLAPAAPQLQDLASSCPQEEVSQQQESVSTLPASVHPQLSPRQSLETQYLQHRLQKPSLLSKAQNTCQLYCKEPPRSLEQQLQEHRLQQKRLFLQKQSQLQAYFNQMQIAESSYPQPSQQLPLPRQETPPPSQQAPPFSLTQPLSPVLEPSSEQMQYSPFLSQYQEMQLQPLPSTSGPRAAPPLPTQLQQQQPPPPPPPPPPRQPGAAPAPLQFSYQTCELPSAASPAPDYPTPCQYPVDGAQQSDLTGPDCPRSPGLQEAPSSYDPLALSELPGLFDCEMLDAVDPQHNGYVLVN
Known IC50 of a selection of compounds

[[record]]
structure_as_smiles = "CCn1cc(-c2ccc3c(c2)ncn3-c2cc(OC)c(C(=O)NCCF)c(OC)c2)cn1"
test_result = "0.01 to 10 nM"


What IC50 value was documented for this compound, `COc1cc(-c2cnc3cc(-c4cn(C)nc4C(F)(F)F)ccn23)cc(OC)c1C(=O)NCC(F)(F)F` ?
10 to 100 nM

Consider the compound shown here: `CCOc1cncc(-c2ccn3c(-c4cc(OC)c(C(=O)NCC(F)(F)F)c(OC)c4)cnc3c2)c1` What is its recorded IC50?
0.01 to 10 nM

Please look up its IC50: `COc1cc(-c2cnc3cc(-c4cnn(C)c4)cnn23)cc(OC)c1C(=O)NC1CC1`
0.01 to 10 nM

---

molecular target: SIK3 (Homo sapiens); construct: purchased SignalChem S12-11G-100; test: biochemical
Measured Quantity: IC50

Previously resolved entries follow.
[[record]]
compound = "COc1cc(-c2cnc3cc(-c4cc(C)no4)ccn23)cc(OC)c1C(=O)N[C@H](C)C(F)(F)F [compound 223]"
assayed_target = "SIK3 (Homo sapiens)"
test_result = "10 to 100 nM"

[[record]]
compound = "COc1cc(-n2cnc3cc(-n4ccc(C)n4)ccc32)cc(OC)c1C(=O)NCC(F)(F)F [Cpd 154]"
assayed_target = "SIK3 (Homo sapiens)"
test_result = "100 to 500 nM"

[[record]]
compound = "COc1cc(-c2cnc3cc(-c4cnn(C5CN(C(=O)OC(C)(C)C)C5)c4)ccn23)cc(OC)c1C(=O)NCC(F)(F)F [compound 260]"
assayed_target = "SIK3 (Homo sapiens)"
test_result = "0.01 to 10 nM"


Which IC50 reading was recorded for the compound COc1cc(-n2cnc3cc(-c4conc4C)ccc32)cc(OC)c1C(=O)NCC(F)(F)F [compound 108] ?
100 to 500 nM

Report IC50 for COc1cc(-c2cnc3cc(-c4cnn(C)c4)ccn23)cc(OC)c1C(=O)NC1CC1 [compound 102] please.
0.01 to 10 nM

Returns the measured IC50 for the input compound. Input: COC(=O)C1CN(C(=O)c2c(OC)cc(-c3cnc4cc(-c5cnn(C)c5)ccn34)cc2OC)C1 [compound 226]
10 to 100 nM

Any idea what IC50 was measured for COc1cc(-n2cnc3cc(-c4cnn(C)c4)ccc32)cc(OC)c1C(=O)NC(C)(C)C [compound 76] ?
> 500 nM

Entry COc1cc(-n2cnc3cc(-c4cnn(C)c4)ccc32)cc(OC)c1C(=O)NC1CC1 [Cpd 86] : reported IC50 = ?
0.01 to 10 nM

Which IC50 is reported for this compound? CCNC(=O)c1c(OC)cc(-n2cnc3cc(-c4cccnc4)ccc32)cc1OC [compound 2]
10 to 100 nM

# query: IC50 of entry COc1cc(-c2cnc3cc(-c4cnn(C)c4)ccn23)cc(OC)c1C(=O)NCC(F)(F)F [Cpd 88]
0.01 to 10 nM

Quick one: IC50 of COc1cc(-c2cnc3cc(-c4cn[nH]c4)ccn23)cc(OC)c1C(=O)N[C@H](C)C(F)(F)F [compound 222] ?
0.01 to 10 nM

Value lookup for IC50; key = COc1cc(-n2cnc3cc(-c4cncn4C)ccc32)cc(OC)c1C(=O)NCC(F)(F)F [compound 135]
100 to 500 nM

The measured values listed here are drawn from patent US12065443B2.
